Examples of compounds with documented Percent Effect follow.
Test system: Wolbachia pipientis
Assay Remarks: Anti-Wolbachia Cell-Based Screen
Format: functional
Set-up: scale not given: in the data most compounds retested in dose-response had high values
Condition Notes: 5 µM
Screen size: about 48,000 compounds; about 13,000 (27%) showed an effect of 50% or more. Some of the results follow.
Metric: Percent Effect

Compound	Measured
CCOCc1ccccc1NC(=O)NC1CCN(c2ccccc2)C1 (stereo unspecified)	9.486%
Clc1cc(Cl)cc(CN2CCC(NCc3ncc[nH]3)CC2)c1	21.36%
Fc1ccc(Nc2ccc(C3CCN(Cc4ncc[nH]4)CC3)nc2)nc1	114.5%
COCC(=O)NS(=O)(=O)c1ccc(F)c(F)c1	-13.69%
Cc1ccc(Oc2c(F)cccc2OC[C@@H](N)CC(C)C)cc1	105.2%
CC(C)Oc1ccc(-c2csc(Cn3ccc(=O)[nH]c3=O)n2)cc1	-3.236%
FC(F)(F)CN1CCC(CCNc2ncccn2)CC1	-5.19%
CC(C)C[C@H](N)COc1cccc(F)c1Oc1cccc(Cl)c1	101.2%
O=C(CSc1ccc2c(c1)OCCO2)NS(=O)(=O)c1ccccc1	-10.89%
COc1ccc2cc(CNc3c(C)nn(C(C)C)c3C)ccc2c1	-4.986%
Cc1nc(NCCSc2nnc(C)s2)c2cccnc2n1	-15.89%
COc1ccc(C(CO)NC(=O)Nc2cccc(F)c2)cc1 (stereo unspecified)	-21.51%
Cc1cccc(C(C)(C)CNC(=O)CCSc2nnnn2C)c1	-0.1425%
CC(C)C[C@H](N)COc1cccc(F)c1Oc1ccccc1	86.38%
CCCOc1ccccc1C(N)CC(C)C (stereo unspecified)	-0.2003%
CC1(NC(=O)Cc2csc(C(C)(C)C)n2)CCS(=O)(=O)C1 (stereo unspecified)	-4.538%

###

System: Wolbachia pipientis
Assay Remarks: Anti-Wolbachia Cell-Based Screen
Type: functional
Parameters: scale not given: in the data most compounds retested in dose-response had high values
Condition Notes: 5 µM
In all, about 48,000 compounds went through this assay and about 13,000 (27%) showed an effect of 50% or more. The list shows a part of the results.
# Percent Effect values compiled below
Metric: Percent Effect (%)

Molecule	Measured
O=C1CC(c2ccc(C(=O)O)cc2)c2ncn(-c3ccccc3Cl)c2N1 (centres undefined)	2.095
c1ccc2nc(N3CCCCC3)c(NCc3nnc4n3CCC4)nc2c1	-16.15
CC(C)(C)n1nnnc1CN(CCc1ccccc1)Cc1ccccc1	189.2
CC(C)(C)NC(=O)[C@@H]1Cc2ccccc2CN1Cc1cccs1	16.75
O=C(O)c1c(Cl)ncn1-c1cccc2ccccc12	101.1
CCn1cc(CN2CCCC2c2nc(-c3ccccc3)no2)cc1C#N (centres undefined)	-29.44
CN(Cc1ccncc1)Cc1nccn1Cc1ccccc1	10.06
CC(C)(C)n1c(NC(=O)CNC(=O)NC2CC2)nc2ccccc21	-6.693
Cc1ncc(CN(C)Cn2nc(-c3ccccc3)oc2=O)s1	56.71
CC(=O)N1[C@H](CN(C)C)C[C@@H]2CN(c3ncc(F)cn3)CC[C@@H]21.O=C(O)C(F)(F)F.O=C(O)C(F)(F)F	-11.57
Cc1ccccc1N1CCN(C(=O)Cn2ccnc2)CC1=O	-5.789
CN1CCCN(C(=O)c2nc3c(o2)CN(S(C)(=O)=O)C3)CC1	89.92
Cc1nccn1[C@@H]1CC[C@@H](NC(=O)CCCn2cccn2)[C@H]1O	100.2
Cc1cc(C)nc(NCc2nnc3n2CCCCC3)n1	-1.015
CC(=O)N1[C@H](Cn2cncn2)C[C@@H]2CN(Cc3ccncc3)CC[C@@H]21.O=C(O)C(F)(F)F.O=C(O)C(F)(F)F	-2.106
O=C(c1ccc(F)cc1)N1C[C@@H]2CN(c3ncccn3)C[C@@H]2C1	2.652
COc1c(C)cnc(CN(C)C(=O)c2ccccn2)c1C	13.08
Cc1nccn1[C@@H]1CC[C@@H](NC(=O)CCOc2ccccc2)[C@H]1O	125.1
CCn1nc(C)c(CCNC(=O)C2CCCN(CC(N)=O)C2)c1C (centres undefined)	-1.587
c1ccc(-c2nc3c(c(NCc4n[nH]c5c4CCC5)n2)CCNC3)cc1	-30.21
Cl.FC(F)Oc1ccc(CNCc2cc(Cl)c3c(c2)OCO3)cc1	-3.122
CN(C)CC(=O)N1Cc2nc(C(=O)NCc3ccccc3)oc2C1	4.563
CCc1nc(CN2CCCC(Nc3ncnc4ccsc34)C2)no1 (centres undefined)	25.2
CC(=O)C(Cc1ccccc1)NC(=O)CSc1nccn1C1CC1 (centres undefined)	4.235
NC(=O)CN1C(=O)CO[C@H]2CN(Cc3ccc(Cl)cc3)C[C@H]21	-3.813
CC(C)(C)n1nnnc1CN(Cc1ccccc1)Cc1ccccc1Cl	144.9
CCN(Cc1noc(CC(C)C)n1)Cc1ccccc1Cl	16.12
COc1ccc(C(=O)N2CCN(C(=O)c3csc(C(C)C)n3)CC2)cc1	-4.051
CC(CCc1ccccc1)NC(=O)Nc1cnn(CC(N)=O)c1 (centres undefined)	-0.3012
CCn1nc2c(cc1=O)CN(CC1CCCCO1)CC2 (centres undefined)	-5.782
Cc1ncsc1CCC(=O)NC1CCN(c2ccc(Cl)nn2)CC1	-3.367
CCCN(CCc1cccc(F)c1)c1ccc2nnnn2n1	9.519
O=C1CN(C(=O)c2ccc(F)cc2)CC(O)CN1Cc1cccs1 (centres undefined)	106.9
c1ccc(-c2nc3c(c(NCc4nnc5n4CCC5)n2)CCNC3)cc1	90.53
COc1ccc(C(=O)N2CC(=O)N(Cc3cccs3)CC(O)C2)cc1 (centres undefined)	106.6
CCC[C@H]1CN(C2CCOCC2)C[C@@H]1NC(=O)CCn1ccnc1C	0.5076
CN(Cc1ccc(Br)s1)Cn1nc(-c2ccc(F)cc2)oc1=O	11.33
COCCNc1nc(C2CCCC2)nc2c1CCNCC2	12.56
c1ccc2nc(N3CCCC3)c(NCc3nnc4n3CCC4)nc2c1	-27.33

###

// Percent Effect lookup, one value per entry
Test system: Wolbachia pipientis
Assay Remarks: Anti-Wolbachia Cell-Based Screen
Format: functional
Parameters: scale not given: in the data most compounds retested in dose-response had high values
Condition Notes: 5 µM
Screen size: about 48,000 compounds; about 13,000 (27%) showed an effect of 50% or more. The list shows a part of the results.

Molecule	Percent Effect (%)
CCCN1CCN(C(=O)c2cccnc2)CC1	10.45
Cn1nc(C(=O)N2CCCCC2c2nc3cc(F)ccc3[nH]2)ccc1=O (stereo not drawn)	6.226
O=C(O)C(F)(F)F.O=C(c1cccnc1)N1CCC2(CC1)CCN(c1ccsc1)C2=O	13.97
COCCN1CCC2(CCN(C(=O)c3ccc(F)cc3)CC2)C1=O	82.71
COc1cccc(OCC(=O)N(C)c2cccnc2)c1	104.9
COc1c(CNCc2cnn(C)c2)c(C(C)C)nn1C	-6.64
O=C(C1CCN(c2nc3nc[nH]c(=O)c3s2)CC1)N1CCCCC1	84.01
CN(C)c1ncc(CNS(=O)(=O)c2cc(F)ccc2Cl)n1C	-4.152
CC(C)NC(=O)C1CCN(c2nc3nc[nH]c(=O)c3s2)CC1	92.05
COc1ccc(CC(=O)N(C)c2cccnc2N(C)C)c(Cl)c1	3.868
O=C(NC1CC1)C1CCN(c2nc3nc[nH]c(=O)c3s2)CC1	99.33
COCCN1CCN(C)C2(CCN(C(=O)c3ccnnc3)CC2)C1=O.O=C(O)C(F)(F)F	1.549
CC(C)NC(=O)C1CCN(Cn2ccc(-c3ccc(F)cc3)n2)CC1	3.574
CCN(C)C1COC2(CCN(C(=O)c3cccc(Cl)c3)CC2)C1.O=C(O)C(F)(F)F (stereo not drawn)	-32.01
CC(C)c1nn(C)c(N(C)C)c1CNCCC(=O)N(C)C.Cl	-2.081
COc1c(CNCC(=O)N2CCN(C)CC2)c(C(C)C)nn1C	95.67
CC(C)c1nn(C)c(Cl)c1CNCC(=O)N1CCN(C)CC1.Cl	99.42
CCS(=O)(=O)N1CCC2(CC(=O)N(c3cnn(C)c3)C2)C1 (stereo not drawn)	-4.174

###

Tested on: Wolbachia pipientis
Assay Remarks: Anti-Wolbachia Cell-Based Screen
Type: functional
Parameters: scale not given: in the data most compounds retested in dose-response had high values
Condition Notes: 5 µM
Out of some 48,000 compounds screened, about 13,000 (27%) showed an effect of 50% or more. The list shows a part of the results.
The following molecules are shown together with reported Percent Effect values.

Molecule	Target System	Percent Effect, %
c1ccc(C2CN(CCc3ccncc3)CCO2)cc1 (stereo not drawn)	Wolbachia pipientis	114.6
CCc1nnc2n1CCN(C(=O)c1ccccc1OCC1CC1)C2	Wolbachia pipientis	-2.361
CCc1nc(CN(C)CC(c2cccs2)N2CCOCC2)no1 (stereo not drawn)	Wolbachia pipientis	-2.837

###

Tested on: Wolbachia pipientis
Assay Remarks: Anti-Wolbachia Cell-Based Screen
Format: functional
Set-up: scale not given: in the data most compounds retested in dose-response had high values
Condition Notes: 5 µM
Out of some 48,000 compounds screened, about 13,000 (27%) showed an effect of 50% or more. The list shows a part of the results.

Compound	Percent Effect / %
O=C(CN1CCC2(CCCN(CCO)C2=O)C1)NCCc1ccccc1 (stereo not given)	3.055
CC(C)c1cc(C(=O)NCCc2nc3c(s2)CCC3)n(C)n1	118.8
CCC(C)c1ccc(NC(=O)C2CCN(C(=O)COC)CC2)cc1 (stereo not given)	-13.47
CC(C)(O)C1CCN(C(=O)Nc2nc(-c3ccccc3)ns2)CC1	6.519
O=C(NCCCn1cccn1)C1COCC(=O)N1Cc1ccccc1 (stereo not given)	-30.45
CC(=O)c1ccc(N2CCCC(CO)(CCOc3ccccc3)C2)nc1 (stereo not given)	5.356
CC(Cn1cccn1)NC(=O)Nc1nccs1 (stereo not given)	-3.735
Cc1cc(C)nc(N2CCC(C(=O)Nc3ccc(C(C)C)cc3)CC2)n1	135.6
COC1CCCN(Cc2cc(O)c3cc(C)cc(C)c3n2)C1 (stereo not given)	-4.558
O=C(CCOc1ccc(Cl)cc1)NCCCn1cccn1	101.2
Cc1cc(C(=O)NCCc2nc3c(s2)CCCC3)n(C)n1	113.4
CCn1c(C2CCCN(Cc3cc(C)cc(C)c3)C2)nn(C)c1=O (stereo not given)	14.99
Cc1cc(C)c2nc(CN3CCCC(c4cc[nH]n4)C3)cc(O)c2c1 (stereo not given)	54.67
CCC(C)c1ccc(NC(=O)C2CCN(C(=O)N(C)C)CC2)cc1 (stereo not given)	-1.822
CCC(CC)c1nnc(NC(=O)NC(C)Cn2cccn2)s1 (stereo not given)	102.8
CCn1c(C2CCCN(Cc3ccc(F)cc3Cl)C2)nn(C)c1=O (stereo not given)	-0.1084
CSc1cc2c(cc1NC(=O)NCC(C)(C)C(N)=O)OCCO2	-12.99
CC(NCC1CCN(CCO)CC1)c1ccc(Cl)cc1 (stereo not given)	5.926
O=C1O[C@@H]2CN(Cc3ccccc3F)C[C@@H]2N1CCCN1CCOCC1	2.415
Cn1cc(CCCNS(=O)(=O)N2CCCC2c2ccco2)cn1 (stereo not given)	-2.203
